Source of measurements: ChEMBL document CHEMBL2424603

- Assay notes: Selectivity index, ratio of IC50 for rat L6 cells to IC50 for chloroquine/pyrimethamine-resistant Plasmodium falciparum K1
- Assay type: toxicity, cell-based
- Settings: rat L6 cells (cytotoxicity) versus Plasmodium falciparum K1, read-out: Ratio IC50
Recorded metric: selectivity ratio

INSERT INTO results (smiles_notation, recorded_metric, assay_result) VALUES
  ('O=c1oc2cc(O)ccc2cc1-c1ccc(Oc2ccc(Cl)cc2O)cc1', 'selectivity ratio', 5.1),
  ('O=c1ccc2ccc(Oc3ccc(Cl)cc3O)cc2o1', 'selectivity ratio', 20.1),
  ('Cc1cc(=O)oc2cc(Oc3ccc(Cl)cc3O)ccc12', 'selectivity ratio', 9),
  ('CCc1cc(=O)oc2cc(Oc3ccc(Cl)cc3O)ccc12', 'selectivity ratio', 14.9),
  ('CCc1cc(=O)oc2ccc(Oc3ccc(Cl)cc3O)cc12', 'selectivity ratio', 25.6),
  ('O=c1ccc2cc(Oc3ccc(Cl)cc3O)ccc2o1', 'selectivity ratio', 9),
  ('O=c1oc2ccccc2cc1Oc1ccc(Cl)cc1O', 'selectivity ratio', 7.2),
  ('Cc1cc(=O)oc2ccc(Oc3ccc(Cl)cc3O)cc12', 'selectivity ratio', 2.2);
